Biological target: T1, recombinant human midkine (huMK) (human, UniProt P21741 21-143)
T1 sequence (looked up): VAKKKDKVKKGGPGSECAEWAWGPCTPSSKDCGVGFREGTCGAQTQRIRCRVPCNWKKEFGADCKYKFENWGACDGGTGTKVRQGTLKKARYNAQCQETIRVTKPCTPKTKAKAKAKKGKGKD
Assay: cell-based or functional assay
MEASURE_NAME: Mean % Inhibition of UMR106 cell migration
State the result as a value with its unit after it.

Reference set, count: 3
BINDER: IP14-H6L3 (antibody, V domains shown, also called hIP14-H6L3; Hv6 Lv3) VH: QVQLVQSGGGLVKPGHSLRLSCAASGQSFSSYWMNWVRQAPGKGLEWIGMIHPSDSETILNQKFKDKATLSVDIAKNSAYLQMNSLRAEDTAVYYCSSWSAKRGDFWGQGTLVTVSS VL: DIVLTQSPATLSLSPGERATLSCRASESISNNLHWYQQKPGQAPRLLIYYASQSISGIPARFSGSGPGTDFTLTISSLEPEDFAVYYCQQSNSWPLTFGGGTKLEIKR
OBS_VALUE: 44.3%
//
BINDER: IP14-H5L8 (antibody, V domains shown, also called hIP14-H5L8; Hv5 Lv8) VH: QVQLVQSGGGLVQPGGSLRLSCAASGQSFSSYWMNWVRQAPGQGLEWIGMIHPSDSETILNQKFKDKATLTVDISKNTAYLQMNSLRAEDTAVYYCSSWSAKRGDFWGQGTLVTVSS VL: DIVLTQSPATLSLSPGERATLSCRASESISNNLHWYQQKPHQAPRLLIYYASQSISGVPARFSGSGSGTDFTLTISSVEPEDFAVYYCQQSNSWPLTFGQGTKVEIKR
OBS_VALUE: 40.7%
//
BINDER: murine IP14 precursor antibody (antibody, V domains shown, Murine monoclonal antibody; also called mIP14; mAb IP14) VH: QVQLQQPGAELVRPGHSVKLSCKASGQSFSSYWMNWVRQRPGQGLEWIGMIHPSDSETILNQKFKDKATLTVDISSNTAYMQLSSPTSEDSAVYFCSSWSAKRGDFWGQGTTLTVSS VL: DIVLTQSPATLSVTPGDSVNLSCRASESISNNLHWYQQKSHESPRLLIKYASQSISGIPSRFSGSGSGTDFNLSVNSVETEDFGMYFCQQSNSWPLTFGAGTKLELKR
OBS_VALUE: 18%

Let us move to another entry and its Mean % Inhibition of UMR106 cell migration.
Please give measured Mean % Inhibition of UMR106 cell migration of the following entry: IP14-H6L8 (antibody, V domains shown, also called hIP14-H6L8; Hv6 Lv8) VH: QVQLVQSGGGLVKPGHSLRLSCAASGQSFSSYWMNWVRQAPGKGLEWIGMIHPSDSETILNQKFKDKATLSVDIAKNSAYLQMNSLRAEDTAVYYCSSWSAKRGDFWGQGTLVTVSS VL: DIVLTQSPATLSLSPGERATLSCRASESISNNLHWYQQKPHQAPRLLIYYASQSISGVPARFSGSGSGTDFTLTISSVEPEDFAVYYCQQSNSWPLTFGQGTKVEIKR 38.7%
